// provenance: patent US9434711B2

target: canine TRPM8 (Canis lupus familiaris, UniProt Q1A7N1); experiment: In Vitro Canine TRPM8 Functional Assay (Ca2+ fluorescence, icilin activation); format: cell-based; details: HEK293 cells stably expressing canine TRPM8; icilin activation; eight-point dose-response; read-out: IC50
Sequence (Q1A7N1 1-1104): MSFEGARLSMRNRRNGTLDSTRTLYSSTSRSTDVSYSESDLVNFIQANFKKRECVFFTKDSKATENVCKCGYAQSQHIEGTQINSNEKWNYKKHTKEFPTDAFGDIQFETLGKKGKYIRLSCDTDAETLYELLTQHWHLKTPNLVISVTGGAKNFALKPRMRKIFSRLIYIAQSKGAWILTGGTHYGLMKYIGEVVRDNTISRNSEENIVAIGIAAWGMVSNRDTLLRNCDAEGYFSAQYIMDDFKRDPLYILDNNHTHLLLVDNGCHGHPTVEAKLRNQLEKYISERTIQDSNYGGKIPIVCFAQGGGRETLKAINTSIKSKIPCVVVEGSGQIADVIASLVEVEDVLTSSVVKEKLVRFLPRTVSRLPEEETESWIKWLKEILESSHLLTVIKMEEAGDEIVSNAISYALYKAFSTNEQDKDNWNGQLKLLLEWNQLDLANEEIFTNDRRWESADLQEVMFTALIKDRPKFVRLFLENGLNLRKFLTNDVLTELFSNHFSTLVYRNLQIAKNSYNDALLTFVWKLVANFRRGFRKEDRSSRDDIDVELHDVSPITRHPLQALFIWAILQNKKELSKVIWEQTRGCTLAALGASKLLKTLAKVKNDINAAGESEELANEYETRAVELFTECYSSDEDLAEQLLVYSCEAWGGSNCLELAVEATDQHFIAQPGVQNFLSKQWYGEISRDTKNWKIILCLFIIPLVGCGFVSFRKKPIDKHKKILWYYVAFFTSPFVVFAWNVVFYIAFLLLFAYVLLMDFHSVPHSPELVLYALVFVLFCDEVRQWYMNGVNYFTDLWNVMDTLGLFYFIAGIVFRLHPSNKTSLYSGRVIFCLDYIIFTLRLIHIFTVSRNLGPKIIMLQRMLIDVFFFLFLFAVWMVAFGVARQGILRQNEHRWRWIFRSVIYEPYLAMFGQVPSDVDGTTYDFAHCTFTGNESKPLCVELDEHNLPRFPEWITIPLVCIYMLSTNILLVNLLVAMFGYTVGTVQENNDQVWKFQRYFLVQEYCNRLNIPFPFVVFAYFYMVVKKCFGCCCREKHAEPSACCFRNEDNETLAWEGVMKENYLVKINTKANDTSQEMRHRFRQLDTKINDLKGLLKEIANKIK
pIC50: −log10 of the molar value.
measured parameter: pIC50

[
  {
    "compound": "Cc1c(N(Cc2ccc(OC(F)(F)F)cc2)S(=O)(=O)c2ccsc2)sc2ccccc12 [Compound 16]",
    "tgt": "canine TRPM8 (Canis lupus familiaris, UniProt Q1A7N1)",
    "pIC50": 8.22
  },
  {
    "compound": "Cc1c(N(Cc2ccc(F)c(C(F)(F)F)c2)S(=O)(=O)c2cccc3nccnc23)sc2ccccc12 [Compound 723]",
    "tgt": "canine TRPM8 (Canis lupus familiaris, UniProt Q1A7N1)",
    "pIC50": 7.74
  },
  {
    "compound": "O=C(O)c1ccc(S(=O)(=O)N(Cc2ccc(OC(F)(F)F)cc2)c2sc3ccccc3c2C2CC2)cc1 [Compound 755]",
    "tgt": "canine TRPM8 (Canis lupus familiaris, UniProt Q1A7N1)",
    "pIC50": 9.05
  },
  {
    "compound": "O=S(=O)(CC(F)(F)F)N(Cc1ccc(F)c(C(F)(F)F)c1)c1sc2ccccc2c1Cl [Compound 703]",
    "tgt": "canine TRPM8 (Canis lupus familiaris, UniProt Q1A7N1)",
    "pIC50": 7.29
  }
]

P = CC(=O)c1c(N(CCCCC(F)(F)F)S(=O)(=O)c2ccc(C#N)cc2)sc2ccccc12 [Compound 773]
Q = Cc1c(N(CCCC(F)(F)F)S(=O)(=O)c2ccc(Oc3cccnc3)cc2)sc2ccccc12 [Compound 373]
Input: // max by pIC50 over [ P , Q ] Give the label of your selection.
Output: P

====

target: canine TRPM8 (Canis lupus familiaris, UniProt Q1A7N1); assay: In Vitro Canine TRPM8 Functional Assay (Ca2+ fluorescence, icilin activation); format: cell-based; conditions: HEK293 cells stably expressing canine TRPM8; icilin activation; eight-point dose-response; read-out: IC50
measured parameter: IC50 (nM)

[
  {
    "compound": "O=C(O)c1cccc(S(=O)(=O)N(Cc2ccc(F)c(C(F)(F)F)c2)c2sc3ccccc3c2Br)c1",
    "data value": 7.8
  },
  {
    "compound": "CCS(=O)(=O)N(Cc1ccc(F)c(C(F)(F)F)c1)c1sc2ccccc2c1C(C)(C)O",
    "data value": 0.6
  },
  {
    "compound": "COc1ccc(Br)cc1CN(c1sc2ccccc2c1Br)S(=O)(=O)c1ccccc1",
    "data value": 55.4
  },
  {
    "compound": "COCCN(c1sc2ccccc2c1C)S(=O)(=O)c1ccccc1",
    "data value": 18
  }
]

1 = O=c1[nH]c(-c2ccc(S(=O)(=O)N(CCC(F)(F)F)c3sc4ccccc4c3Cl)cc2)no1
2 = CCS(=O)(=O)N(CCOC(C)(C)C)c1sc2ccccc2c1C(C)O (centres unmarked)
Input: Just tell me: smaller IC50 value, 1 or 2 ? Give the label of your selection.
Output: 1
(1: 53.7 nM, 2: 92 nM)

====

biological target: canine TRPM8 (Canis lupus familiaris, UniProt Q1A7N1); assay: In Vitro Canine TRPM8 Functional Assay (Ca2+ fluorescence, icilin activation); assay type: cell-based; details: compound at 0.2 μM; canine TRPM8, icilin activation; read-out: % Inh @ 0.2
measured parameter: inhibition at 0.2 µM (%)

Before answering, review these 3 worked examples.
[
  {
    "compound smiles": "CC(C)(C)OCCCN(c1sc2ccccc2c1Br)S(=O)(=O)c1ccc(C(=O)O)cc1",
    "measured parameter": "inhibition at 0.2 µM",
    "data value": 95
  },
  {
    "compound smiles": "COC(=O)c1ccc(S(=O)(=O)N(CCC(F)(F)F)c2sc3ccccc3c2C(C)(C)O)cc1",
    "measured parameter": "inhibition at 0.2 µM",
    "data value": 101
  },
  {
    "compound smiles": "O=S(=O)(c1cccnc1Cl)N(Cc1ccc(F)c(C(F)(F)F)c1)c1cc2ccccc2s1",
    "measured parameter": "inhibition at 0.2 µM",
    "data value": 69
  }
]

P = O=S(=O)(N(Cc1ccc(F)c(C(F)(F)F)c1)c1cc2ccccc2s1)C(F)(F)F
Q = COC(C)(C)CCN(c1sc2ccccc2c1Br)S(=O)(=O)c1ccc(C(=O)O)cc1
R = Cc1c(N(Cc2ccc(F)c(C(F)(F)F)c2)S(=O)(=O)c2ccc(C(=O)O)o2)sc2ccccc12
Input: Sort by inhibition at 0.2 µM, descending. API: response body holds the labels in the requested order.
Output: Q, R, P

====

biological target: canine TRPM8 (Canis lupus familiaris, UniProt Q1A7N1); assay: In Vitro Canine TRPM8 Functional Assay (Ca2+ fluorescence, icilin activation); type: cell-based; conditions: HEK293 cells stably expressing canine TRPM8; icilin activation; eight-point dose-response; read-out: IC50
pIC50: −log10 of the molar value.
measured parameter: pIC50

Before answering, review these 2 worked examples.
[
  {
    "compound": "Cc1c(N(CCC2CC2)S(=O)(=O)c2nc3ccccc3n2C)sc2ccccc12 [Compound 745]",
    "pIC50": 7.07
  },
  {
    "compound": "O=S(=O)(c1ccc(-c2nnn[nH]2)cc1)N(CCC(F)(F)F)c1sc2ccccc2c1Cl [Compound 636]",
    "pIC50": 7.34
  }
]

I = CCCCN(c1sc2ccccc2c1Br)S(=O)(=O)c1ccc(C(N)=NO)cc1 [Compound 473]
II = Cc1c(N(CC2CC2)S(=O)(=O)c2ccc(C(=O)O)cc2)sc2ccccc12 [Compound 399]
III = CC(C)(O)c1c(N(Cc2ccc(F)c(C(F)(F)F)c2)S(=O)(=O)c2ccc(C(=O)O)cc2)sc2ccccc12 [Compound 361]
IV = Cc1c(N(CCC(F)(F)F)S(=O)(=O)c2cccc(C#N)c2)sc2ccccc12 [Compound 550]
V = CCCCS(=O)(=O)N(Cc1ccc(F)c(F)c1)c1cc2ccccc2s1 [Compound 37]
Input: Please produce an ascending ranking of these compounds based on pIC50. API: response body holds the labels in the requested order.
Output: V, II, IV, I, III
(V: 7.01, II: 7.44, IV: 7.73, I: 8.05, III: 9.10)

====

biological target: canine TRPM8 (Canis lupus familiaris, UniProt Q1A7N1); experiment: In Vitro Canine TRPM8 Functional Assay (Ca2+ fluorescence, icilin activation); format: cell-based; conditions: compound at 0.2 μM; canine TRPM8, icilin activation; read-out: % Inh @ 0.2
measured parameter: inhibition at 0.2 µM (%)

[
  {
    "compound smiles": "CCS(=O)(=O)N(Cc1ccc(F)c(C(F)(F)F)c1)c1sc2ccccc2c1CN(C)C",
    "inhibition at 0.2 µM (%)": 95
  }
]

A = CC(=O)c1c(N(Cc2ccc(F)c(C(F)(F)F)c2)S(=O)(=O)c2ccc(C#N)cc2)sc2ccccc12
B = CCS(=O)(=O)N(CC(F)F)c1sc2ccccc2c1Br
C = O=C(O)c1ccccc1S(=O)(=O)N(Cc1ccc(F)c(C(F)(F)F)c1)c1sc2ccccc2c1Cl
Input: Sort by inhibition at 0.2 µM, descending. API: response body holds the labels in the requested order.
Output: A, B, C
(A: 98%, B: 52%, C: 21%)

====

biological target: canine TRPM8 (Canis lupus familiaris, UniProt Q1A7N1); experiment: In Vitro Canine TRPM8 Functional Assay (Ca2+ fluorescence, icilin activation); assay type: cell-based; settings: HEK293 cells stably expressing canine TRPM8; icilin activation; eight-point dose-response; read-out: IC50
measured parameter: IC50 (nM)

[
  {
    "compound smiles": "Cc1c(N(Cc2cccc3cccnc23)S(=O)(=O)c2cccc3cccnc23)sc2ccccc12",
    "IC50 (nM)": 32
  },
  {
    "compound smiles": "Cc1c(N(Cc2ccc(F)c(C(F)(F)F)c2)S(=O)(=O)CC(F)(F)F)sc2ccccc12",
    "IC50 (nM)": 51.2
  }
]

A = COc1cccc(S(=O)(=O)N(Cc2ccc(F)c(C(F)(F)F)c2)c2sc3ccccc3c2Br)c1
B = Cc1c(N(Cc2cccc3cccnc23)S(=O)(=O)c2cn(C)cn2)sc2ccccc12
Input: // max by IC50 over [ A , B ] Give the label of your selection.
Output: B
(B: 229 nM, A: 6.4 nM)

====

molecular target: canine TRPM8 (Canis lupus familiaris); test: In Vitro Canine TRPM8 Functional Assay (Ca2+ fluorescence, icilin activation); type: cell-based; conditions: HEK293 cells stably expressing canine TRPM8; icilin activation; eight-point dose-response; read-out: IC50
measured parameter: IC50 (nM)

[
  {
    "compound": "CCCCN(c1sc2ccccc2c1C)S(=O)(=O)c1cccnc1N(C)C [Compound 448]",
    "IC50 / nM": 12
  },
  {
    "compound": "CS(=O)(=O)N(Cc1ccc(F)c(C(F)(F)F)c1)c1cc2ccccc2s1 [Compound 45]",
    "IC50 / nM": 52
  },
  {
    "compound": "CNS(=O)(=O)N(Cc1ccc(F)c(C(F)(F)F)c1)c1sc2ccccc2c1Cl [Compound 309]",
    "IC50 / nM": 55
  },
  {
    "compound": "O=S(=O)(c1ccc(-c2nnn[nH]2)cc1)N(CCCC(F)(F)F)c1cc2ccccc2s1 [Compound 425]",
    "IC50 / nM": 79
  },
  {
    "compound": "CC(C)(O)c1c(N(CCCCC(F)(F)F)S(=O)(=O)c2ccc(Br)cc2)sc2ccccc12 [Compound 656]",
    "IC50 / nM": 53.7
  },
  {
    "compound": "CS(=O)(=O)N(Cc1ccc(F)c(F)c1)c1sc2ccccc2c1Br [Compound 151]",
    "IC50 / nM": 16.7
  }
]

a = CCCCN(c1sc2ccccc2c1C(N)=O)S(=O)(=O)c1ccc(C(=O)OC)cc1 [Compound 465]
b = Cc1c(N(CCCCC(F)(F)F)S(=O)(=O)c2cccc(C#N)c2)sc2ccccc12 [Compound 552]
Input: // max by IC50 over [ a , b ] Give the label of your selection.
Output: a
(a: 63 nM, b: 25.1 nM)
